target: Ret(V804L)(h) (Homo sapiens, UniProt P07949, V804L); experiment: Kinase Profiling Assay; type: biochemical; conditions: peptide 100 μM
OBSERVABLE: % activity (%)
Field: numeric (%). Do not append units.

Query: Give its % activity value. Item: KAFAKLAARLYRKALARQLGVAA [MMI-0400]
Response: 73

Query: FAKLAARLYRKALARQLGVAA [MMI-0300] ?
Response: 79

Query: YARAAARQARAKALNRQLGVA (Mammal) [MMI-0200] ?
Response: 100

Query: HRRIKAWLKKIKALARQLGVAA (Mammal) [MMI-0500] ?
Response: 20

====

Target: DMPK(h) (Homo sapiens, UniProt Q09013)
Sequence (Q09013 1-629): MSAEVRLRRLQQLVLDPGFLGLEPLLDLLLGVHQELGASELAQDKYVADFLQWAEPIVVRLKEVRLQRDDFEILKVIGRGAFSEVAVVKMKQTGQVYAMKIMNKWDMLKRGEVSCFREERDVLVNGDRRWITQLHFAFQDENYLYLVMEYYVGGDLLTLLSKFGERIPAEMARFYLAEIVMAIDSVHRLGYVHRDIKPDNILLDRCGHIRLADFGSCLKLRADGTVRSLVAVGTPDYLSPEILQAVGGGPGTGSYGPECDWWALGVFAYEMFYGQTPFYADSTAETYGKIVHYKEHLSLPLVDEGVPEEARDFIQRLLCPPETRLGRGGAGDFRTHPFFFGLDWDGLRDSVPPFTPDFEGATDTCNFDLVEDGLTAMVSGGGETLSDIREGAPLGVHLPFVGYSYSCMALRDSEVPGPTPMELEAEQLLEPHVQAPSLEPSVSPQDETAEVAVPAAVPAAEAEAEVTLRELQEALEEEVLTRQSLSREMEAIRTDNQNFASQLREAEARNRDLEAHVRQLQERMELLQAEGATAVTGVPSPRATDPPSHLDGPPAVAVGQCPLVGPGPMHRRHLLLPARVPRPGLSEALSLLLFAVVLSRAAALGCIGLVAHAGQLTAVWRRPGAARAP
Experiment: Kinase Profiling Assay
Format: biochemical
Details: peptide 100 μM
OBSERVABLE: % activity (%)
Field: numeric (%). Do not append units.

Query: Give its % activity value. Item: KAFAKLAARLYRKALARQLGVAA [MMI-0400]
Response: 54

Query: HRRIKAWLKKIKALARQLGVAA (Mammal) [MMI-0500] ?
Response: 12

Query: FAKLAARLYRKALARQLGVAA [MMI-0300] ?
Response: 59

Query: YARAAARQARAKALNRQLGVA (Mammal) [MMI-0200] ?
Response: 66

====

Field: % activity. Provide a value for each of the sequences that follow.
target: CHK2(R145W)(h) (Homo sapiens, UniProt O96017, R145W); assay: Kinase Profiling Assay; type: biochemical; details: peptide 100 μM
Sequence (O96017 whole entry R145W): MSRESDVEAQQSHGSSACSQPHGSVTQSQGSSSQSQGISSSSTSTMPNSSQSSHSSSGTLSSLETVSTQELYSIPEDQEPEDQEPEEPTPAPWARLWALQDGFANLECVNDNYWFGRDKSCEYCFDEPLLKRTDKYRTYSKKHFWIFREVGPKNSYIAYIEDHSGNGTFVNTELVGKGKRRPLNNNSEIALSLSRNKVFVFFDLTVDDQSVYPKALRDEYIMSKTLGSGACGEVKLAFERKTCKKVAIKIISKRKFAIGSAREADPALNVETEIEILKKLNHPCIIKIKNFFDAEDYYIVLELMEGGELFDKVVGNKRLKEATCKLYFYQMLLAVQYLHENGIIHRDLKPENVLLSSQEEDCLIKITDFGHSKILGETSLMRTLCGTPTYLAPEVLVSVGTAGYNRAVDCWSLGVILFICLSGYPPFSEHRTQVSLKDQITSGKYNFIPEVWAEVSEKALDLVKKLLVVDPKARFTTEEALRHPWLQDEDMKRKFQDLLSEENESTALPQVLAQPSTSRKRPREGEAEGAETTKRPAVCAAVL
No end group written: not given here.

Query: Give its % activity value. Item: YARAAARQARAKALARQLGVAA [MMI-0100]
Response: 97%

Query: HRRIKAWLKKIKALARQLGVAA (Mammal) [MMI-0500] ?
Response: 3%

Query: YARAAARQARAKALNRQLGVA (Mammal) [MMI-0200] ?
Response: 81%

Query: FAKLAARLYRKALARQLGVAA [MMI-0300] ?
Response: 33%

Query: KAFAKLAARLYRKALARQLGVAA [MMI-0400] ?
Response: 31%

====

target: mTOR(h) (Homo sapiens, UniProt P42345); construct: purchased Millipore; assay: Kinase Profiling Assay; format: biochemical; details: peptide 100 μM
OBSERVABLE: % activity (%)
Field: numeric (%). Do not append units.

Query: Give its % activity value. Item: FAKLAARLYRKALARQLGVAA [MMI-0300]
Response: 91

Query: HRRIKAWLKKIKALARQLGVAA (Mammal) [MMI-0500] ?
Response: 135

Query: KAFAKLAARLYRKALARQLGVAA [MMI-0400] ?
Response: 93

Query: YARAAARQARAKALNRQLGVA (Mammal) [MMI-0200] ?
Response: 110

====

target: PRK2(h) (Homo sapiens); test: Kinase Profiling Assay; format: biochemical; settings: peptide 100 μM
Sequence (Q16513 whole entry): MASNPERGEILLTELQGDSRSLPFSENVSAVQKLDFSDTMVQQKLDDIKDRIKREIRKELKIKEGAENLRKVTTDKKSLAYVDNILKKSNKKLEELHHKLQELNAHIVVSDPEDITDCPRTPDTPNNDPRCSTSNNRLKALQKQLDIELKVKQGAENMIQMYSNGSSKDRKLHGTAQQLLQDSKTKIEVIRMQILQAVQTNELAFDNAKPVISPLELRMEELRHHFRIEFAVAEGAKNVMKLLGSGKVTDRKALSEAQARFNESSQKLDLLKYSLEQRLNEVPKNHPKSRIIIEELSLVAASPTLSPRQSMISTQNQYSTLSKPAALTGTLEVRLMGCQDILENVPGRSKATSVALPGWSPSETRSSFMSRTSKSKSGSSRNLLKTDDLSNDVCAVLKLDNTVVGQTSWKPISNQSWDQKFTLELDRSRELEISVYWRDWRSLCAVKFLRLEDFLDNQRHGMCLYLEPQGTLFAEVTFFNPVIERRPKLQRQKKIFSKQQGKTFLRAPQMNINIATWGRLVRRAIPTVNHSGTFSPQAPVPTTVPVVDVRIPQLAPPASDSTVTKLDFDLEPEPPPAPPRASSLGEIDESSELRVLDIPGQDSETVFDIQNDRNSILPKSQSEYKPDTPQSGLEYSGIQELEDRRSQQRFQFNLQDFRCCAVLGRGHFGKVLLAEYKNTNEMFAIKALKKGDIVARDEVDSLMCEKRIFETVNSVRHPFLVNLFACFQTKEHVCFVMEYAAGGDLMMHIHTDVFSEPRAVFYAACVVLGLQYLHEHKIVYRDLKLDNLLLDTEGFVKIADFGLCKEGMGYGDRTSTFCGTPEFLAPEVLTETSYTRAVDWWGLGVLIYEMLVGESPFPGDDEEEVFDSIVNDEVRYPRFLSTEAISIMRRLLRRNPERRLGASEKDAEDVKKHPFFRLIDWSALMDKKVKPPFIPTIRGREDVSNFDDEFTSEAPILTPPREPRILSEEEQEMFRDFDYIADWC
Please enter class 1 where % activity is greater than or equal to 70%, and class 0 where it is lower.

Query: Identify whether the reported % activity of the following sequence is 70% or greater: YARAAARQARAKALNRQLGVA (Mammal) [MMI-0200]
Response: class 1

Query: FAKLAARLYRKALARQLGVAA [MMI-0300] ?
Response: class 0

Query: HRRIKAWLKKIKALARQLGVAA (Mammal) [MMI-0500] ?
Response: class 0

Query: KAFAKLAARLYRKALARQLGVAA [MMI-0400] ?
Response: class 0

====

Biological target: TAO1(h) (Homo sapiens, UniProt Q7L7X3)
Construct: purchased Millipore
Sequence (Q7L7X3 1-1001): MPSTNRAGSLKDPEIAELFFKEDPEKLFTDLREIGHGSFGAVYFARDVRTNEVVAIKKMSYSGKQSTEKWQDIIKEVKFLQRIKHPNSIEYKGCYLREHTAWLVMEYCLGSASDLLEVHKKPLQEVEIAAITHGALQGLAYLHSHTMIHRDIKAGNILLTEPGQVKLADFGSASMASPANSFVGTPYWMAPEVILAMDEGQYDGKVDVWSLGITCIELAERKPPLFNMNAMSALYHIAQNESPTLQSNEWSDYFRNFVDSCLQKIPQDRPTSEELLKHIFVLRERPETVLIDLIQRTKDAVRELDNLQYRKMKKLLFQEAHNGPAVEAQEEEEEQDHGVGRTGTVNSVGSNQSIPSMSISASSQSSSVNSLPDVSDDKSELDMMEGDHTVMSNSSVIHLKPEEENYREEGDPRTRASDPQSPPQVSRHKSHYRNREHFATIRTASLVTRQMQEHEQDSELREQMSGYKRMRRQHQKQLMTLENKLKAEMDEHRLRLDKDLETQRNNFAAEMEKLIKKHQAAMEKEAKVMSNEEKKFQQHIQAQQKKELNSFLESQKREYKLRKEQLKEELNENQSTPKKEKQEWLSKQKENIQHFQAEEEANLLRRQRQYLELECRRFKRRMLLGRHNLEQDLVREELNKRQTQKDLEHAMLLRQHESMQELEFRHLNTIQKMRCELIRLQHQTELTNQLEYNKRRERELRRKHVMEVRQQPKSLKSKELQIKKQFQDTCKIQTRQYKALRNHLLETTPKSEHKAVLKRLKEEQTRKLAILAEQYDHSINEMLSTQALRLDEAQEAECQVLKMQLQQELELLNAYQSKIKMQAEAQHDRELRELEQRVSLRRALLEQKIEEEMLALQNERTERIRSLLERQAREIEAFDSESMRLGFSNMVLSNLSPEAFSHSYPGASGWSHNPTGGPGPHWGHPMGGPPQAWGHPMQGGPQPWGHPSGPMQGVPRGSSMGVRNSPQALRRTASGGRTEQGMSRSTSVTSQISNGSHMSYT
Assay: Kinase Profiling Assay
Type: biochemical
Details: peptide 100 μM
No end group written: not given here.
Field: % activity. Provide a value for each of the sequences that follow.
Field: numeric (%). Do not append units.

Query: Give its % activity value. Item: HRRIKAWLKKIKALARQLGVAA (Mammal) [MMI-0500]
Response: 24

Query: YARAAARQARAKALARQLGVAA [MMI-0100] ?
Response: 99

Query: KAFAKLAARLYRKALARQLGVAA [MMI-0400] ?
Response: 73

Query: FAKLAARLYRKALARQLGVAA [MMI-0300] ?
Response: 82

====

Target: MKK6(h) (Homo sapiens, UniProt P52564)
Construct: purchased Millipore
Sequence (P52564 1-334): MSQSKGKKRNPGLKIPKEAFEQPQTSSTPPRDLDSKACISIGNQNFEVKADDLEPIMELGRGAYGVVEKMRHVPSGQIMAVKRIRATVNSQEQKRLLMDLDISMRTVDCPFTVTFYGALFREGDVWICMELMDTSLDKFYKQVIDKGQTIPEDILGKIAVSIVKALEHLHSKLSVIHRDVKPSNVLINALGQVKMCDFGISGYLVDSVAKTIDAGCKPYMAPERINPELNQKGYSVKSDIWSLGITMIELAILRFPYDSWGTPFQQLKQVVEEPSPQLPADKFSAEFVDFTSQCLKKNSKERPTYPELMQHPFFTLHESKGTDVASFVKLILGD
Assay: Kinase Profiling Assay
Type: biochemical
Details: peptide 100 μM
Field: % activity. Provide a value for each of the sequences that follow.
Field: numeric (%). Do not append units.

Query: Give its % activity value. Item: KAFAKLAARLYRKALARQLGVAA [MMI-0400]
Response: 44

Query: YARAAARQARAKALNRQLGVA (Mammal) [MMI-0200] ?
Response: 98

Query: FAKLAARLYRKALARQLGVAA [MMI-0300] ?
Response: 48

Query: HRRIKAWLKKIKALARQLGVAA (Mammal) [MMI-0500] ?
Response: 18

Measured values drawn from patent US20150258192A1 for this set.
